- Target Or System: KV7.1/minK (Homo sapiens)
- Sequence (P51787 whole entry): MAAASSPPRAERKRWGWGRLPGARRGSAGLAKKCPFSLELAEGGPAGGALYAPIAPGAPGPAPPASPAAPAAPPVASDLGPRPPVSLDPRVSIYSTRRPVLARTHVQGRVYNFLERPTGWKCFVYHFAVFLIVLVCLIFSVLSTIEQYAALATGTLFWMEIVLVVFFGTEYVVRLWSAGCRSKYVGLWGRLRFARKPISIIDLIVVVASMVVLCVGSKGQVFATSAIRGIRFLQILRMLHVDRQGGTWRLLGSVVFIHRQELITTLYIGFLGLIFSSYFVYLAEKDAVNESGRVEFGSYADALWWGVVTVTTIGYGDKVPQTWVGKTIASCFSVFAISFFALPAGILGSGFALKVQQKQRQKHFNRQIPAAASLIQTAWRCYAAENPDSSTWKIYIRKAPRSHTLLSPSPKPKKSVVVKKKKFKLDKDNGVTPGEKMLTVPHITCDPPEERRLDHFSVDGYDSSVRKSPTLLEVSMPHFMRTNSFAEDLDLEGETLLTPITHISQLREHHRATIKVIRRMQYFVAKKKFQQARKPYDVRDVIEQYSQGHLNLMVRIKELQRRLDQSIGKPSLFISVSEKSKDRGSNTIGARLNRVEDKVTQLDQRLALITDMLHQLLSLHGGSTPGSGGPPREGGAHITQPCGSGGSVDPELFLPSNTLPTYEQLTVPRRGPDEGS
- Method Description: automated patch-clamp

{"Molecule": "CC(C)COCC(CN(Cc1ccccc1)c1ccccc1)N1CCCC1 (stereo not shown)", "IC50, µM": 7.2}

###

- Target Or System: NaV1.5 (Homo sapiens)
- Sequence (Q14524 whole entry): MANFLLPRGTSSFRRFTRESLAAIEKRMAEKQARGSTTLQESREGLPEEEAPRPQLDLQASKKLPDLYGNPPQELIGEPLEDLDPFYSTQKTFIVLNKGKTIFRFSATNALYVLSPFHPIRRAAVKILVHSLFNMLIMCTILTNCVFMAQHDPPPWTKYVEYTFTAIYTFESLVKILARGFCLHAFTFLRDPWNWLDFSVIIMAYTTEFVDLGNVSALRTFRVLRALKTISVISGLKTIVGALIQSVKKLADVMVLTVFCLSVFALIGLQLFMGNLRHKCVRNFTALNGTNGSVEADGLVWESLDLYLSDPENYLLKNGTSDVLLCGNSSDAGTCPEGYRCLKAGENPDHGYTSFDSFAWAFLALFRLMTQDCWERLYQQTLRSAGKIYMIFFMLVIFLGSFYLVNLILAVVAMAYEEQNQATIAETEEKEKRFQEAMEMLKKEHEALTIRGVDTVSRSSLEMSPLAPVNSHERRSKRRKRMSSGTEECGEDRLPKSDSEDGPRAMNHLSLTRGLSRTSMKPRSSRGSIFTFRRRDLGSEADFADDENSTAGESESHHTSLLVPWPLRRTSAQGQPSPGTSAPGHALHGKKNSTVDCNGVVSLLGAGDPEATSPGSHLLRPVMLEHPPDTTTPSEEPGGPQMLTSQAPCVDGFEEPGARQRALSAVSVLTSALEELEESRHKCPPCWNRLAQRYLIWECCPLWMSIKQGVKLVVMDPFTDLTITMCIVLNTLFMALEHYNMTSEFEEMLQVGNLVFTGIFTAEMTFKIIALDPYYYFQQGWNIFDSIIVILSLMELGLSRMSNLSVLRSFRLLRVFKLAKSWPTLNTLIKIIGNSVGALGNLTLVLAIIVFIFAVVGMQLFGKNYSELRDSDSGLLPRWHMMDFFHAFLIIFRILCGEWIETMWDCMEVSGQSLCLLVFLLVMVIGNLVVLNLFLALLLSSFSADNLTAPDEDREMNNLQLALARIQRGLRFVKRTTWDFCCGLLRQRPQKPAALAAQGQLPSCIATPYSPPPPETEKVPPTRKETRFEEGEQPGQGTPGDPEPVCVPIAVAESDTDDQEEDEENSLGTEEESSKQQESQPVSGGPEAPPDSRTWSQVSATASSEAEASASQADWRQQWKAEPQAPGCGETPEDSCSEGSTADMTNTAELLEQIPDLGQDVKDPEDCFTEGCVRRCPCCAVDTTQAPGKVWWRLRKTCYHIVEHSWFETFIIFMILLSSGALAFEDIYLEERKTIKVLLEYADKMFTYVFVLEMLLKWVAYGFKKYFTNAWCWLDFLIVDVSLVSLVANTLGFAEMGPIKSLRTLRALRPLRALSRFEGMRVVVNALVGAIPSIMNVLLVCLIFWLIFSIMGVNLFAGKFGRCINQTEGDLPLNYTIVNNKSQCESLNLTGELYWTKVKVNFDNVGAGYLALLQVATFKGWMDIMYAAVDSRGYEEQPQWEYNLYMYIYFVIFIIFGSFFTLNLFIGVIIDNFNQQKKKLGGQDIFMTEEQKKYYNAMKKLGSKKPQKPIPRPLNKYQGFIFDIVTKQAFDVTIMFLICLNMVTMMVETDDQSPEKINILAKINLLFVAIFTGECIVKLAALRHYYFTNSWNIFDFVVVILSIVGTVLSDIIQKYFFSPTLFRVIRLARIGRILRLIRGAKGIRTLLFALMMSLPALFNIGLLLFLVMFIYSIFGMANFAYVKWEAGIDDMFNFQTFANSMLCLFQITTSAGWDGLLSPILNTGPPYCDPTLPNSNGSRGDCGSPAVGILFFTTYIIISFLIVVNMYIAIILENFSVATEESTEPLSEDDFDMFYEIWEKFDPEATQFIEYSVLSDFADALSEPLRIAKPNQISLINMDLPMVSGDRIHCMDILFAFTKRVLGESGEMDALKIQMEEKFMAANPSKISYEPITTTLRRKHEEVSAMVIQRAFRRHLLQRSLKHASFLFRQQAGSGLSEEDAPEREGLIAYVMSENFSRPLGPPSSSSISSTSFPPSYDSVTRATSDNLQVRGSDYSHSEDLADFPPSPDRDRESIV
- Method Description: automated patch-clamp
pIC50: −log10 of the molar value.
Measured Parameter: pIC50

{"Molecule": "CC(C)COCC(CN(Cc1ccccc1)c1ccccc1)N1CCCC1 (stereo not shown)", "Endpoint Result": 5.60}
